Source listed as patent US9096595B2.

testedOn: hCRTH2 receptor (Homo sapiens (Human))
protocolDescription: hCRTH2 receptor membranes radioligand (3H-PGD2) displacement assay
measurementParameters: 3H-PGD2 2.5 nM, HEK293-hCRTH2 membrane fragments, Binding-Buffer with 0.1% BSA
pIC50: −log10 of the molar value.
experimentalEndpoint: pIC50

[[record]]
molecule = "CN(c1nc2cc(F)ccc2o1)C1CCc2c(CC(=O)O)c3cc(F)ccc3n2C1 (stereo not drawn)"
experimentalendpoint = "pIC50"
valuereported = 7.92

[[record]]
molecule = "CN(c1cnc2cc(F)ccc2n1)C1CCc2c(CC(=O)O)c3ccc(Cl)cc3n2C1 (stereo not drawn)"
experimentalendpoint = "pIC50"
valuereported = 8.70

[[record]]
molecule = "O=C(O)Cc1c2n(c3cc(F)ccc13)CC(Nc1nc3cc(F)ccc3o1)CC2 (stereo not drawn)"
experimentalendpoint = "pIC50"
valuereported = 7.96


====

testedOn: hCRTH2 receptor (Homo sapiens (Human))
protocolDescription: Radioligand displacement assay in presence of human serum albumin (HSA)
measurementParameters: 3H-PGD2 2.5 nM, HEK293-hCRTH2 membrane fragments, Binding-Buffer-HSA with 0.5% human serum albumin instead of 0.1% BSA
pIC50: −log10 of the molar value.
experimentalEndpoint: pIC50

[[record]]
molecule = "CN(c1ncc(Cl)cn1)C1CCc2c(CC(=O)O)c3ccc(F)cc3n2C1 (centres unmarked)"
experimentalendpoint = "pIC50"
cmp = "="
valuereported = 7.34

[[record]]
molecule = "Cc1cnc(N(C)C2CCc3c(CC(=O)O)c4ccc(Cl)cc4n3C2)nc1 (centres unmarked)"
experimentalendpoint = "pIC50"
cmp = "="
valuereported = 6.61

[[record]]
molecule = "CN(c1ncc(C(F)(F)F)cn1)C1CCc2c(CC(=O)O)c3ccccc3n2C1 (centres unmarked)"
experimentalendpoint = "pIC50"
cmp = "="
valuereported = 6.82

[[record]]
molecule = "CN(c1ncc2cc(F)ccc2n1)C1CCc2c(CC(=O)O)c3ccc(Cl)cc3n2C1 (centres unmarked)"
experimentalendpoint = "pIC50"
cmp = "="
valuereported = 8.40

[[record]]
molecule = "O=C(O)Cc1c2n(c3cc(Cl)ccc13)CC(N(CC1CC1)c1ncc(F)cn1)CC2 (centres unmarked)"
experimentalendpoint = "pIC50"
cmp = "="
valuereported = 8.05

[[record]]
molecule = "CN(c1nc2cc(F)ccc2s1)C1CCc2c(CC(=O)O)c3ccccc3n2C1 (centres unmarked)"
experimentalendpoint = "pIC50"
cmp = "="
valuereported = 7.23

[[record]]
molecule = "Cc1ccc2c(c1)c(CC(=O)O)c1n2CC(N(C)c2nc3cc(F)ccc3o2)CC1 (centres unmarked)"
experimentalendpoint = "pIC50"
cmp = "<"
valuereported = 6.00

[[record]]
molecule = "CN(c1ncc2ccc(F)cc2n1)C1CCc2c(CC(=O)O)c3ccc(Cl)cc3n2C1 (centres unmarked)"
experimentalendpoint = "pIC50"
cmp = "="
valuereported = 7.43

[[record]]
molecule = "CN(c1ncc(Cl)cn1)C1CCc2c(CC(=O)O)c3ccc(C(F)(F)F)cc3n2C1 (centres unmarked)"
experimentalendpoint = "pIC50"
cmp = "="
valuereported = 7.42

[[record]]
molecule = "CN(c1ncc2ccccc2n1)C1CCc2c(CC(=O)O)c3ccc(Cl)cc3n2C1 (centres unmarked)"
experimentalendpoint = "pIC50"
cmp = "="
valuereported = 8.30

[[record]]
molecule = "CN(c1nc2cc(F)ccc2o1)C1CCc2c(CC(=O)O)c3cc(F)ccc3n2C1 (centres unmarked)"
experimentalendpoint = "pIC50"
cmp = "="
valuereported = 6.91

[[record]]
molecule = "CC(C)N(c1nc2cc(F)ccc2o1)C1CCc2c(CC(=O)O)c3ccc(Cl)cc3n2C1 (centres unmarked)"
experimentalendpoint = "pIC50"
cmp = "="
valuereported = 8.30

[[record]]
molecule = "CN(c1nc2ccc(F)cc2s1)C1CCc2c(CC(=O)O)c3ccc(C(F)(F)F)cc3n2C1 (centres unmarked)"
experimentalendpoint = "pIC50"
cmp = "="
valuereported = 7.82

[[record]]
molecule = "CCN(c1nc2cc(F)ccc2o1)C1CCc2c(CC(=O)O)c3ccc(Cl)cc3n2C1 (centres unmarked)"
experimentalendpoint = "pIC50"
cmp = "="
valuereported = 8.05

[[record]]
molecule = "CN(c1nc2ccc(F)cc2s1)C1CCc2c(CC(=O)O)c3ccccc3n2C1 (centres unmarked)"
experimentalendpoint = "pIC50"
cmp = "="
valuereported = 7.37

[[record]]
molecule = "CN(c1ncc(F)cn1)C1CCc2c(CC(=O)O)c3ccc(F)cc3n2C1 (centres unmarked)"
experimentalendpoint = "pIC50"
cmp = "="
valuereported = 8.00

[[record]]
molecule = "CN(c1ncc(Cl)cn1)C1CCc2c(CC(=O)O)c3ccc(Cl)cc3n2C1 (centres unmarked)"
experimentalendpoint = "pIC50"
cmp = "="
valuereported = 7.51

[[record]]
molecule = "CC(C)CN(c1nc2cc(F)ccc2o1)C1CCc2c(CC(=O)O)c3ccc(Cl)cc3n2C1 (centres unmarked)"
experimentalendpoint = "pIC50"
cmp = "="
valuereported = 8.22

[[record]]
molecule = "O=C(O)Cc1c2n(c3cc(F)ccc13)CC(Nc1ncc(F)cn1)CC2 (centres unmarked)"
experimentalendpoint = "pIC50"
cmp = "="
valuereported = 6.52

[[record]]
molecule = "CCCN(c1ncc(F)cn1)C1CCc2c(CC(=O)O)c3ccc(Cl)cc3n2C1 (centres unmarked)"
experimentalendpoint = "pIC50"
cmp = "="
valuereported = 7.68


====

testedOn: hCRTH2 receptor (Homo sapiens (Human), UniProt Q9Y5Y4)
Sequence (Q9Y5Y4 whole entry): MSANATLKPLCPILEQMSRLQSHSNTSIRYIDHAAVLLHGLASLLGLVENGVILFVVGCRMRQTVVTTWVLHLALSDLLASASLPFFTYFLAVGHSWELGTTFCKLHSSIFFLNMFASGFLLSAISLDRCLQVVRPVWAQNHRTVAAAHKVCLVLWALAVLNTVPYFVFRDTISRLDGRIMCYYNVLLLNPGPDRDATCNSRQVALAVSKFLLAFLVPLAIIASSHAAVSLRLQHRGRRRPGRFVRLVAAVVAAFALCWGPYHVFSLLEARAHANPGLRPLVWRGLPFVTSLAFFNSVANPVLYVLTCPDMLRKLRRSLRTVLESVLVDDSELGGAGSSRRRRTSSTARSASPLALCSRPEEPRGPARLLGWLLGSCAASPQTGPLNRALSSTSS
protocolDescription: hCRTH2 receptor membranes radioligand (3H-PGD2) displacement assay
measurementParameters: 3H-PGD2 2.5 nM, HEK293-hCRTH2 membrane fragments, Binding-Buffer with 0.1% BSA
experimentalEndpoint: IC50 (nM)

[[record]]
compound = "CN(c1nc2ccc(F)cc2s1)C1CCc2c(CC(=O)O)c3ccc(C(F)(F)F)cc3n2C1 (stereo not shown) [Example 26]"
testedon = "hCRTH2 receptor (Homo sapiens (Human), UniProt Q9Y5Y4)"
experimentalendpoint = "IC50"
valuereported = 16

[[record]]
compound = "CC(C)N(c1nc2cc(F)ccc2o1)C1CCc2c(CC(=O)O)c3ccc(Cl)cc3n2C1 (stereo not shown) [Example 46]"
testedon = "hCRTH2 receptor (Homo sapiens (Human), UniProt Q9Y5Y4)"
experimentalendpoint = "IC50"
valuereported = 3

[[record]]
compound = "CN(c1nc2cc(F)ccc2o1)C1CCc2c(CC(=O)O)c3cc(Cl)ccc3n2C1 (stereo not shown) [Example 16]"
testedon = "hCRTH2 receptor (Homo sapiens (Human), UniProt Q9Y5Y4)"
experimentalendpoint = "IC50"
valuereported = 21

[[record]]
compound = "CN(c1nc2cc(F)ccc2o1)C1CCc2c(CC(=O)O)c3ccc(F)cc3n2C1 (stereo not shown) [Example 10]"
testedon = "hCRTH2 receptor (Homo sapiens (Human), UniProt Q9Y5Y4)"
experimentalendpoint = "IC50"
valuereported = 0.7

